- system: Cell division control protein 42 homolog (Homo sapiens)
- Sequence (P60953 whole entry, looked up): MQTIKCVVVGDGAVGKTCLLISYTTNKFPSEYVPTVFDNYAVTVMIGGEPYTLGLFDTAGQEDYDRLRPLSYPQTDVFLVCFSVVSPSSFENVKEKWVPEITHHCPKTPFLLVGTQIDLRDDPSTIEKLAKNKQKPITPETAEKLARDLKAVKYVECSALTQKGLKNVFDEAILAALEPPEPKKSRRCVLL
- assay: Inhibition of Cdc42 GTPase activity assessed as incorporation of BODIPY-GTP at 50 uM after 40 mins by nucleotide binding competition assay
I would appreciate it if you labelled entries 1.0 when inhibition is 10% or higher, otherwise 0.0.

Past entries and their recorded results:
COc1cc2cc(-c3cccc(C(C)=O)c3)nc(C)c2cc1OC
0.0
COc1ccc2cc3[n+](cc2c1OC)CCc1cc2c(cc1-3)OCO2
0.0
COc1ccc2cc3[n+](cc2c1OC)CCc1cc(O)c(O)cc1-3
1.0
COc1cc2cc(-c3cccc(C(C)=O)c3)[n+](C)c(C)c2cc1OC
0.0
C[n+]1cc2c3c(ccc2c2ccc4cc5c(cc4c21)OCO5)OCO3
1.0

API: above_or_equal(metric=inhibition, cutoff=10%) for item Cc1c2cc(O)c(O)cc2cc(-c2ccc(O)c(O)c2)[n+]1C 1.0

API: above_or_equal(metric=inhibition, cutoff=10%) for item COc1cc2cc(-c3ccc4c(c3)OCO4)nc(C)c2cc1OC 1.0

API: above_or_equal(metric=inhibition, cutoff=10%) for item COc1ccc2c(c1OC)C(c1ccccc1)N1CCc3cc4c(cc3C1C2)OCO4 (configuration not stated) 0.0

API: above_or_equal(metric=inhibition, cutoff=10%) for item COc1cc2cc3c4ccc(OC)c(OC)c4cc[n+]3c(C)c2cc1OC 1.0

API: above_or_equal(metric=inhibition, cutoff=10%) for item COc1cc2c(cc1OC)-c1cc3ccc(OC)c(OC)c3c[n+]1CC2 0.0

API: above_or_equal(metric=inhibition, cutoff=10%) for item COc1ccc2c(c[n+](C)c3c4cc5c(cc4ccc23)OCO5)c1OC [CHELERYTHRINE CHLORIDE] 1.0

API: above_or_equal(metric=inhibition, cutoff=10%) for item COc1ccc2c(c[n+](C)c3c4cc(O)c(O)cc4ccc23)c1OC 1.0

API: above_or_equal(metric=inhibition, cutoff=10%) for item COc1cc2cc(-c3ccc(O)c(O)c3)[n+](C)c(C)c2cc1OC 0.0

API: above_or_equal(metric=inhibition, cutoff=10%) for item Oc1cc2c(cc1O)-c1cc3ccc(O)c(O)c3c[n+]1CC2 1.0

API: above_or_equal(metric=inhibition, cutoff=10%) for item COc1cc2cc(-c3ccc4c(c3)OCO4)[n+](C)c(C)c2cc1OC 0.0

API: above_or_equal(metric=inhibition, cutoff=10%) for item COc1cc2cc(-c3ccc4ccccc4c3)nc(C)c2cc1OC 1.0

API: above_or_equal(metric=inhibition, cutoff=10%) for item Cc1nc(-c2ccc(O)c(O)c2)cc2cc(O)c(O)cc12 1.0

API: above_or_equal(metric=inhibition, cutoff=10%) for item COc1cc2cc(-c3ccc(O)c(O)c3)nc(C)c2cc1OC 1.0

API: above_or_equal(metric=inhibition, cutoff=10%) for item C[n+]1cc2c(O)c(O)ccc2c2ccc3cc(O)c(O)cc3c21 1.0

API: above_or_equal(metric=inhibition, cutoff=10%) for item Cc1c2cc(O)c(O)cc2cc2c3ccc(O)c(O)c3cc[n+]12 1.0

API: above_or_equal(metric=inhibition, cutoff=10%) for item COc1cc2cc(-c3ccc(Cl)c(Cl)c3)nc(C)c2cc1OC 0.0

API: above_or_equal(metric=inhibition, cutoff=10%) for item COc1ccc2c(c1OC)CN1CCc3cc4c(cc3C1C2)OCO4 (racemic) 0.0
